- run description: chemical genetic growth profiling, strain panel (AID 1159580);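 note: tested at 20 µM; growth read once vehicle control cultures reached saturation at 30 °C; 1 = growth at the plate median or of vehicle wells; lower values mean less growth of the strain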
- test context: S. cerevisiae deletion strains, growth OD, locus YLR027C, strain aat2, hits give low values
In all, about 5,500 compounds went through this assay and about 2,000 (36%) were called active. Another 18% or so got no clear call; they are omitted. The list shows a part of the results.
readout type: normalized growth

INSERT INTO measurements (compound, test_result) VALUES
  ('CNC[C@@H](O)c1ccc(O)c(O)c1', '1 (inactive)'),
  ('C/C=C/c1ccc2c(c1)OCO2', '1.02 (inactive)'),
  ('CCCCC1=NC2(CCCC2)C(=O)N1Cc1ccc(-c2ccccc2-c2nn[nH]n2)cc1', '0.999 (inactive)'),
  ('NC(=NCCC[C@H](N)C(=O)O)NC(CCC(=O)O)C(=O)O (stereo partly specified)', '0.998 (inactive)'),
  ('Cc1ccc(/C(=C\CN2CCCC2)c2ccccn2)cc1', '1.04 (inactive)'),
  ('Cc1occc(=O)c1O', '0.97 (inactive)'),
  ('CC(=O)O[C@H]1C[C@@H](OC(C)=O)C(C)(C)C2C[C@@H](OC(C)=O)[C@@]3(C)C4=CC(=O)O[C@@H](c5ccoc5)[C@]4(C)CCC3[C@]21C (stereo partly specified)', '0.982 (inactive)'),
  ('C[n+]1cccc(C(=O)[O-])c1', '0.983 (inactive)'),
  ('OC[C@@H](O)[C@@H](O[C@@H]1O[C@H](CO)[C@@H](O)[C@H](O)[C@H]1O)[C@H](O)[C@@H](O)CO', '0.997 (inactive)'),
  ('CC(C)NCC(O)c1ccc(O)c(O)c1 (stereo unspecified)', '1 (inactive)'),
  ('Nc1ccc(S(=O)(=O)Nc2ccc(Cl)nn2)cc1', '0.995 (inactive)');

---

- run description: chemical genetic growth profiling, strain panel (AID 1159580);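 note: tested at 20 µM; growth read once vehicle control cultures reached saturation at 30 °C; 1 = growth at the plate median or of vehicle wells; lower values mean less growth of the strain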
- test context: S. cerevisiae deletion strains, growth OD, locus YGR252W, strain gcn5, hits give low values
Screen size: about 5,500 compounds; about 2,000 (36%) were called active. Inconclusive results (about 18%) are left out. The list shows a part of the results.
normalized growth overview
readout type: normalized growth

INSERT INTO assay_data (molecule, test_result) VALUES
  ('O=C(O)c1cccnc1Nc1cccc(C(F)(F)F)c1', 0.911),
  ('CC(=O)NCCCCCC(=O)O', 0.954),
  ('C=CC(C1=CC(=O)C(OC)=CC1=O)c1ccc(O)cc1 (configuration not stated)', 0.904),
  ('C=CC(C1=CC(=O)C(OC)=CC1=O)c1ccc(OC)cc1 (configuration not stated)', 0.77),
  ('CCC(Cc1c(I)cc(I)c(N)c1I)C(=O)O (configuration not stated)', 1.04),
  ('C=CC(C1=CC(=O)C=CC1=O)c1ccccc1 (configuration not stated)', 0.952),
  ('CNc1ccccc1C(=O)O', 1.02);

---

- run description: chemical genetic growth profiling, strain panel (AID 1159580);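 note: tested at 20 µM; growth read once vehicle control cultures reached saturation at 30 °C; 1 = growth at the plate median or of vehicle wells; lower values mean less growth of the strain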
- test context: S. cerevisiae deletion strains, growth OD, locus YLR330W, strain CHS5
In all, about 5,500 compounds went through this assay and about 2,000 (36%) were called active. Roughly 18% stayed inconclusive and do not appear here. Cut-off read from the data, not from the text of the source: active = normalized growth mostly below about 0.91 (no sharp cut-off); inconclusive = no clear call, values can overlap the other calls; inactive = mostly above about 0.92. The list shows a part of the results.
Outcome codes: active, inactive

INSERT INTO assay_data (molecule, assigned_label) VALUES
  ('O=C(O)c1ccccc1Nc1cccc(C(F)(F)F)c1', 'active'),
  ('CN1C(CC(=O)c2ccccc2)CCCC1CC(O)c1ccccc1 (centres undefined)', 'inactive'),
  ('CNC[C@@H](O)c1ccc(O)c(O)c1', 'inactive'),
  ('Cc1ccc(/C(=C\CN2CCCC2)c2ccccn2)cc1', 'inactive'),
  ('CC(=O)Nc1cc([As](=O)(O)O)ccc1O', 'inactive'),
  ('CCCc1occc(=O)c1/C=C/O', 'inactive'),
  ('Nc1ncnc2c1ncn2C1C[C@H](O)[C@@H](CO)O1 (some centres undefined)', 'inactive'),
  ('COc1ccccc1OCCNCC(O)COc1cccc2[nH]c3ccccc3c12 (centres undefined)', 'inactive'),
  ('O=C(O)/C=C/C=C/c1ccccc1', 'inactive'),
  ('NCC(O)c1ccc(O)cc1 (centres undefined)', 'inactive'),
  ('CSCCC(NC=O)C(=O)NC(C)C(=O)O (centres undefined)', 'inactive'),
  ('COc1cc(C(=O)NCc2ccc(OCCN(C)C)cc2)cc(OC)c1OC', 'inactive'),
  ('Nc1ncnc2c1ncn2C1O[C@H](COP(=O)(O)O)[C@@H](O)[C@H]1O (some centres undefined)', 'inactive'),
  ('O=C1C=CC2=C3c4cc(O)c(O)cc4CC3(O)COC2=C1O (centres undefined)', 'inactive'),
  ('Cc1occc(=O)c1O', 'inactive'),
  ('CCN(CC)CCOc1ccc(/C(=C(\Cl)c2ccccc2)c2ccccc2)cc1', 'active'),
  ('CN(C)CCOC(C)(c1ccccc1)c1ccccn1 (centres undefined)', 'inactive'),
  ('COC(=O)C[C@H]1C(C)(C)C(=O)[C@@H]2CC3=C4CC(=O)O[C@@H](c5ccoc5)[C@]4(C)CCC3[C@@]1(C)C2=O (some centres undefined)', 'inactive'),
  ('CC1(C)C(C(Cl)Cl)C2(Cl)C(Cl)C(Cl)C1(Cl)C2(Cl)Cl (centres undefined)', 'inactive'),
  ('Nc1nc2ncc(C(=O)O)nc2c(=O)[nH]1', 'inactive'),
  ('CC(=O)O[C@H]1C[C@@H](OC(C)=O)C(C)(C)C2C[C@@H](OC(C)=O)[C@@]3(C)C4=CC(=O)O[C@@H](c5ccoc5)[C@]4(C)CCC3[C@]21C (some centres undefined)', 'inactive'),
  ('CC(=O)OC1CC(OC(C)=O)C2(C)C(CC(OC(C)=O)C3(C)C2CCC2(C)C(c4ccoc4)CC4OC423)C1(C)C (centres undefined)', 'inactive'),
  ('Cc1occc(=O)c1/C=C/O', 'inactive'),
  ('CC(C)NCC(O)c1ccc(O)c(O)c1 (centres undefined)', 'inactive');

Data provenance: PubChem BioAssay AID1159580
